Biological target: HIV-1 IN–LEDGF interaction (Human immunodeficiency virus type 1 group M subtype B, UniProt P04585)
Experiment: biochemical
Details: read-out: IN–LEDGF Binding IC50
MEASURE NAME: IC50

Please give measured IC50 of the following entry: CC#CC#C/C=C1/O[C@@]2(OC=C[C@H]2OC(C)=O)[C@@H](O)[C@@H]1Cl
> 100 µM

###

Target: HIV-1 IN in the absence of LEDGF (Human immunodeficiency virus type 1 group M subtype B, UniProt P04585)
Construct: Recombinant 6xHis IN protein, FLAG-IN, His-LEDGF and FLAG-LEDGF were expressed in Escherichia coli strain BL21 (DE3); made in house; host or cells: Escherichia coli BL21 (DE3)
Experiment: biochemical
Assay type: biochemical
Conditions: absence of LEDGF; read-out: LEDGF-Independent IN Activity IC50
MEASURE NAME: IC50 (µM)
A number alone suffices; assume µM.

Please give measured IC50 of the following entry: CC#CC#C/C=C1/O[C@@]2(OC=C[C@H]2OC(C)=O)[C@@H](O)[C@@H]1Cl
27.3
